# Measured Target: human IL-13 (human, UniProt P35225 35-146, limits assumed)
# Sequence (P35225 35-146 limits assumed): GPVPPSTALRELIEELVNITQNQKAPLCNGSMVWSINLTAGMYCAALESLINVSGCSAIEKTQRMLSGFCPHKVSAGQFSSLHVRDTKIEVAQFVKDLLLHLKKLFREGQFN
# Procedure Text: cell-based or functional assay
Below is a list of entries, each paired with its recorded HEK assay Human EC50 value.
The reply should contain only the number, in nM.

Memo: DOM10-53-616 (other) VH: GVQLLESGGGLVQPGGSLRLSCAASGFVFPWYDMGWVRQAPGKGLEWVSSIDWHGKITYYADSVKGRFTISRDNSKNTLYLQMNSLRAEDTAVYYCATAEDEPGYDYWGQGTLVTVSS , reported HEK assay Human EC50: 2.9

Memo: DOM10-53-546 (other) VH: GVQLLESGGGLVQPGGSLRLSCAASGFVFPWYDMGWVRQAPGKGLEWVSSIDWKGGKTYYADSVKGRFTISRDNSKNTLYLQMNSLRAEDTAVYYCATAEDEPGYDYWGQGTLVTVSS , reported HEK assay Human EC50: 1
